Assignment: determine reported Kd for the given compounds.
# measurement_target: BRD4-BD2 (Homo sapiens, UniProt O60885)
# measurement_protocol: Binding affinity to BRD4-BD2 (bromoKdELECT assay)
# condition_parameters: 11-point 3-fold dilution series

Could you tell me which Kd is on file for CC(C)c1ccc(Oc2cccc(OCCN3CCN(c4ncc(C(=O)NC5C(C)(C)C(Oc6ccc(C#N)c(Cl)c6)C5(C)C)cn4)CC3)c2)c(-c2cn(C)c(=O)c3[nH]ccc23)c1 (stereo not drawn) ?
0.05 to 0.5 µM

Could you tell me which Kd is on file for "Cc1ccc(CCCOC2CCN(c3ncc(C(=O)N[C@H]4C(C)(C)[C@H](Oc5ccc(C#N)c(Cl)c5)C4(C)C)cn3)CC2)c(C)c1Oc1ccc(C(C)(C)O)cc1-c1cn(C)c(=O)c2[nH]ccc12" ?
> 2.5 µM

Could you tell me which Kd is on file for "Cn1cc(-c2cc(C(C)(C)O)ccc2Oc2cccc(OCCN3CCN(c4ncc(C(=O)N[C@H]5C(C)(C)[C@H](Oc6ccc(C#N)c(Cl)c6)C5(C)C)cn4)CC3)c2F)c2cc[nH]c2c1=O" ?
< 0.05 µM

Could you tell me which Kd is on file for "CN(c1ccc(Oc2cccc(N3CC(N4CCN(c5ncc(C(=O)N[C@H]6C(C)(C)[C@H](Oc7ccc(C#N)c(Cl)c7)C6(C)C)cn5)CC4)C3)c2F)c(-c2cn(C)c(=O)c3[nH]ccc23)c1)S(=O)(=O)C1CC1" ?
< 0.05 µM

Could you tell me which Kd is on file for "CCS(=O)(=O)Nc1ccc(Oc2cccc(COC3CCN(c4ncc(C(=O)N[C@H]5C(C)(C)[C@H](Oc6ccc(C#N)c(Cl)c6)C5(C)C)cn4)CC3)c2)c(-c2cn(C)c(=O)c3[nH]ccc23)c1" ?
< 0.05 µM

Could you tell me which Kd is on file for "CCS(=O)(=O)Nc1ccc(Oc2cccc(OCCOCCOCCOCCOCCOCCOCCOC3CCN(c4ncc(C(=O)N[C@H]5C(C)(C)[C@H](Oc6ccc(C#N)c(Cl)c6)C5(C)C)cn4)CC3)c2)c(-c2cn(C)c(=O)c3[nH]ccc23)c1" ?
< 0.05 µM

Could you tell me which Kd is on file for "CCS(=O)(=O)Nc1ccc(Oc2cccc(N3CC(OC4CCN(c5ncc(C(=O)N[C@H]6C(C)(C)[C@H](Oc7ccc(C#N)c(Cl)c7)C6(C)C)cn5)CC4)C3)c2)c(-c2cn(C)c(=O)c3[nH]ccc23)c1" ?
0.05 to 0.5 µM

Could you tell me which Kd is on file for "CCS(=O)(=O)Nc1ccc(Oc2cccc(OCCN(C)c3ncc(C(=O)N[C@H]4C(C)(C)[C@H](Oc5ccc(C#N)c(Cl)c5)C4(C)C)cn3)c2)c(-c2cn(C)c(=O)c3[nH]ccc23)c1" ?
< 0.05 µM

Could you tell me which Kd is on file for CCS(=O)(=O)Nc1ccc(OCC(OCCOC2CCN(c3ncc(C(=O)N[C@H]4C(C)(C)[C@H](Oc5ccc(C#N)c(Cl)c5)C4(C)C)cn3)CC2)C2CC2)c(-c2cn(C)c(=O)c3[nH]ccc23)c1 (stereo partly drawn) ?
0.05 to 0.5 µM

Could you tell me which Kd is on file for "CN(c1ccc(Oc2cccc(OCCOC3CCN(c4ncc(C(=O)N[C@H]5C(C)(C)[C@H](Oc6ccc(C#N)c(Cl)c6)C5(C)C)cn4)CC3)c2)c(-c2cn(C)c(=O)c3[nH]ccc23)c1)S(=O)(=O)C1CC1" ?
0.5 to 2.5 µM

Could you tell me which Kd is on file for "CCS(=O)(=O)c1ccc(Oc2cccc(OCCOC3CCN(c4ccc(C(=O)N[C@H]5C(C)(C)[C@H](Oc6ccc(C#N)c(Cl)c6)C5(C)C)cn4)CC3)c2F)c(-c2cn(C)c(=O)c3[nH]ccc23)c1" ?
< 0.05 µM

Could you tell me which Kd is on file for "CC(C)N(CC1CCN(c2ncc(C(=O)N[C@H]3C(C)(C)[C@H](Oc4ccc(C#N)c(Cl)c4)C3(C)C)cn2)CC1)[C@H]1C[C@H](Oc2cccc(Oc3ccc(C(C)(C)O)cc3-c3cn(C)c(=O)c4[nH]ccc34)c2F)C1" ?
< 0.05 µM

Could you tell me which Kd is on file for "CCS(=O)(=O)Cc1ccc(Oc2cccc(OCCC3CCN(c4ncc(C(=O)N[C@H]5C(C)(C)[C@H](Oc6ccc(C#N)c(Cl)c6)C5(C)C)cn4)CC3)c2)c(-c2cn(C)c(=O)c3[nH]ccc23)c1" ?
0.5 to 2.5 µM

Could you tell me which Kd is on file for "CCS(=O)(=O)Nc1ccc(Oc2cccc(OCCOC3CCN(c4ccc(C(=O)N[C@H]5C(C)(C)[C@H](Oc6ccc(C#N)c(Cl)c6)C5(C)C)nn4)CC3)c2)c(-c2cn(C)c(=O)c3[nH]ccc23)c1" ?
< 0.05 µM

Could you tell me which Kd is on file for "Cn1cc(-c2cc(C(C)(C)O)ccc2Oc2ccc(CCOC3CCN(c4ncc(C(=O)N[C@H]5C(C)(C)[C@H](Oc6ccc(C#N)c(Cl)c6)C5(C)C)cn4)CC3)cc2)c2cc[nH]c2c1=O" ?
< 0.05 µM

Could you tell me which Kd is on file for "Cn1cc(-c2cc(C(C)(C)O)ccc2Oc2cccc(CCCN3CCN(c4ncc(C(=O)N[C@H]5C(C)(C)[C@H](Oc6ccc(C#N)c(Cl)c6)C5(C)C)cn4)CC3)c2F)c2cc[nH]c2c1=O" ?
< 0.05 µM

Could you tell me which Kd is on file for "Cn1cc(-c2ccccc2Oc2cccc(OCCN3CCN(c4ncc(C(=O)N[C@H]5C(C)(C)[C@H](Oc6ccc(C#N)c(Cl)c6)C5(C)C)cn4)CC3)c2)c2cc[nH]c2c1=O" ?
> 2.5 µM

Could you tell me which Kd is on file for "CCS(=O)(=O)Nc1ccc(Oc2ccc(OCC3CCN(c4ncc(C(=O)N[C@H]5C(C)(C)[C@H](Oc6ccc(C#N)c(Cl)c6)C5(C)C)cn4)CC3)cc2)c(-c2cn(C)c(=O)c3[nH]ccc23)c1" ?
0.5 to 2.5 µM
